// provenance: PubChem BioAssay AID1210

Overview of recorded inhibition for various molecules
- target_of_assay: Estrogen receptor beta (Homo sapiens)
- assay_explanation: displacement of fluorescent estrogen from ERbeta – cell-based, Cos7 ERbeta-GFP, flow cytometry, primary screen (AID 1210);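 further: 0% = DMSO vehicle wells and 100% = complete loss of labeled estradiol signal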
- run_parameters: fluorescent estrogen binding, ligand binding inhibition, at 0.1 µM, stronger effect = higher value
Note: unit % is implicit; provide only the numeric part.

Sample records with inhibition:
molecule=COCc1cc(=O)n2c(-c3ccc(C)cc3)n[nH]c2n1 numeric_readout=39
molecule="CC1Cc2ccccc2N1C(=O)CSc1nnc(-c2ccc(S(=O)(=O)N3CCCC3)cc2)o1 (stereo unspecified)" numeric_readout=19
molecule=COc1cc(NC(=O)c2cccs2)c(C(=O)OCC(=O)NC(=O)NCc2ccccc2)cc1OC numeric_readout=17
molecule=CCC(=O)Oc1ccc(/C(CC)=C(\CC)c2ccc(OC(=O)CC)cc2)cc1 numeric_readout=80
molecule=N=C1C(c2nc3ccccc3[nH]2)=C(O)CN1c1ccc(CC(=O)O)cc1 numeric_readout=21
molecule=c1coc(-c2nn3c(-c4ccco4)nnc3s2)c1 numeric_readout=28
molecule=CCCSC1=N/C(=C\C=C\c2ccco2)C(=O)S1 numeric_readout=31
molecule="COc1ccc(C2Nc3ccccc3C(=O)N2c2ccccc2)cc1Cn1cc([N+](=O)[O-])cn1 (stereo unspecified)" numeric_readout=45

Q: Look up and state reported inhibition for Oc1ccc(-c2[nH]nc(-c3ccccc3)c2-c2nc3ccccc3[nH]2)cc1
A: 21

Q: Report measured inhibition; entry is Cn1c(-c2ccc3nc(N)sc3c2)nc2cc(N)ccc21
A: 17

Q: Report inhibition for CCCCn1c(=O)[nH]c2nc3cc(N)ccc3nc2c1=O
A: 16

----------
Recorded inhibition for the following compounds
- target_of_assay: Estrogen receptor beta (Homo sapiens)
- assay_explanation: displacement of fluorescent estrogen from ERbeta – cell-based, Cos7 ERbeta-GFP, flow cytometry, primary screen (AID 1210);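 further: 0% = DMSO vehicle wells and 100% = complete loss of labeled estradiol signal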
- run_parameters: fluorescent estrogen binding, ligand binding inhibition, at 0.1 µM, stronger effect = higher value
Numbers only; they are read as %.

Consider the reported inhibition for these compounds:
compound=O=C(Nc1ccccc1N1CCOCC1)c1cc(-c2ccco2)nc2ccccc12 target_of_assay="Estrogen receptor beta (Homo sapiens)" unit_tag=% numeric_readout=28
compound="COc1ccc(C2Nc3ccccc3C(=O)N2c2ccc(Cl)cc2)cc1Cn1cc([N+](=O)[O-])cn1 (stereo unspecified)" target_of_assay="Estrogen receptor beta (Homo sapiens)" unit_tag=% numeric_readout=36
compound=O=C1N/C(=C\c2ccc(O)cc2)C(=O)c2ccccc21 target_of_assay="Estrogen receptor beta (Homo sapiens)" unit_tag=% numeric_readout=1
compound="CC(C)CN(C(=O)COC(=O)c1cc2c(s1)CCC2)C1CCS(=O)(=O)C1 (stereo unspecified)" target_of_assay="Estrogen receptor beta (Homo sapiens)" unit_tag=% numeric_readout=28
compound=Cc1c2cc(O)c(=O)cc-2oc2cc(O)c(O)cc12 target_of_assay="Estrogen receptor beta (Homo sapiens)" unit_tag=% numeric_readout=22

Moving on to the next compound.
Q: State, for Estrogen receptor beta (Homo sapiens), measured inhibition of the compound listed here: Cn1ccnc1SCC(=O)Nc1ccc2nc(SCC(=O)NC3CC3)sc2c1
A: 38

----------
- target_of_assay: Estrogen receptor beta (Homo sapiens) (UniProt Q92731)
- Sequence (Q92731 whole entry, looked up): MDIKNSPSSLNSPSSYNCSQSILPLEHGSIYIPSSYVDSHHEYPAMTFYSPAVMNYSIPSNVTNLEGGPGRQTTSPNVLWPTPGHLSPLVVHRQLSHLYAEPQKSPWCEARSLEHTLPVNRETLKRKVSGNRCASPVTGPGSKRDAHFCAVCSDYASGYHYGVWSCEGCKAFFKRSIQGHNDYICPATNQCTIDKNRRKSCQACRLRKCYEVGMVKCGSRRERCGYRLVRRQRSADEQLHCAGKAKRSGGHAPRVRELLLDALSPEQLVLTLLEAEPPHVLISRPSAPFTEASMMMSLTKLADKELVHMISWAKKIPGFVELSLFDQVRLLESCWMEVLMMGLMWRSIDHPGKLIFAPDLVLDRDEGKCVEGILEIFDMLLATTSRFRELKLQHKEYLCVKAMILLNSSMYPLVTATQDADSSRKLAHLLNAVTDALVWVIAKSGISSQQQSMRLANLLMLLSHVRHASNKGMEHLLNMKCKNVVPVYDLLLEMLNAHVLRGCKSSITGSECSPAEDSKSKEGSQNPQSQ
- assay_explanation: displacement of fluorescent estrogen from ERbeta – cell-based, Cos7 ERbeta-GFP, flow cytometry, primary screen (AID 1210);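 further: 0% = DMSO vehicle wells and 100% = complete loss of labeled estradiol signal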
- run_parameters: fluorescent estrogen binding, ligand binding inhibition, at 0.1 µM, stronger effect = higher value
Measured inhibition accompanies every entry in the list below.
Write the answer as a number in %, unit excluded.

Would you please look over these solved cases?
molecule="COc1ccc(C2Nc3ccccc3C(=O)N2c2ccc(F)cc2)cc1CSc1ccccn1 (centres undefined)" numeric_readout=30
molecule=CCOc1cccc2cc(-c3nnc(NCc4ccco4)s3)c(=O)oc12 numeric_readout=28
molecule=NC(=O)c1c(NC(=O)c2cc3ccccc3o2)sc2c1CCC2 numeric_readout=54

Please find the next molecule below.
Q: Give inhibition for this entry on Estrogen receptor beta (Homo sapiens) (UniProt Q92731): CCCc1nnc2n1N=C(c1ccc(-c3cc(Cl)ccc3Cl)o1)CS2
A: 48
